Numbers sourced from PubChem BioAssay AID1745848.

assay method text: Confirmatory qHTS for Inhibitors of ATXN expression; also: nearly all actives have a fitted effect of over 65% in size
condition summary: ATXN2-luciferase reporter cells, luminescence, 24 h; series mostly up to 57.5 µM
The campaign covered roughly 2,100 compounds. About 940 (45%) were called active. Another 48% or so got no clear call; they are omitted. Calls follow the shape of the dose curve; as a rule, active = well fitted inhibition curve with a large enough effect; inconclusive = small, poorly fitted or top-dose-only effect; inactive = no such curve, though single readings can be large or run the other way. So high a share suggests a set chosen from earlier hits. The list shows a part of the results.
Your answer must be one of the following: Yes (active), No (inactive)

# molecule, discrete label
records = [
    ("CCCCCCC(=O)N/N=C/c1c(O)n(CCc2ccccc2)c(=O)[nH]c1=O", "Yes"),
    ("C[C@]12CCC3C(CCC4=CC(O)CC[C@@]43/C=N/O)C1(O)CCC2C1=CC(=O)OC1 (stereo partly drawn)", "Yes"),
    ("CN1C2CCC1/C(=C/c1ccccn1)C(=O)/C2=C\\c1ccccn1", "Yes"),
    ("CCC(C)N1C(=O)/C(=C\\c2cnc(N(C)C)nc2)C(=O)NC1=S (stereo not drawn)", "No"),
    ("CN1C(=O)NC(=O)/C(=C\\C=C\\c2ccccc2[N+](=O)[O-])C1=O", "Yes"),
    ("Oc1c(Cl)cccc1Cc1cc(Cl)cc(Cl)c1O", "Yes"),
    ("NC(Cc1ccc(Cl)cc1)c1csc(Nc2ccccn2)n1 (stereo not drawn)", "Yes"),
    ("COC(=O)c1nc(-c2ccc3c(n2)C(=O)C(N)=C(OC)C3=O)c(N)c(-c2ccc(OC)c(OC)c2O)c1C", "Yes"),
]

Inquiry: What was the test verdict on CC12CCC(O)CC1CCC1C2CCC2(C)C(C3=CC(=O)OC3)CCC12O (stereo not drawn) ?
Reply text: Yes

Inquiry: What was the test verdict on COc1ccc(CC2C(=O)NC(C)C(=O)N(C)C3C(=O)N(C)C(Cc4ccc(O)c(c4)Oc4ccc(cc4)C3O)C(=O)NC(C)C(=O)NC(C)C(=O)N2C)cc1 (stereo not drawn) ?
Reply text: Yes

Inquiry: What was the test verdict on Clc1ccc2[nH]c3c(c2c1)CCNC3 ?
Reply text: Yes

Inquiry: What was the test verdict on COc1cccc2c1C(=O)c1c(O)c3c(c(O)c1C2=O)CC(O)(C(C)=NO)CC3OC1CC(N)C(O)C(C)O1 (stereo not drawn) ?
Reply text: Yes

Inquiry: What was the test verdict on O=C1NC2C(=CC(O)C(O)C2O)c2cc3c(cc21)OCO3 (stereo not drawn) ?
Reply text: Yes
